Assay: Solid stability test (stability chamber, HPLC total impurity)
Format: physicochemical
Details: solid, packaged, 25° C.±2° C., relative humidity 60%±2%
Exercise: state measured Total impurity increment in 30 days for each of the molecules provided.
A complete answer gives the number and then names the unit.

Measured Total impurity increment in 30 days of CC[C@@H]([C@H](C)OC(=O)OC(C)OC(=O)CC(=O)[O-])n1ncn(-c2ccc(N3CCN(c4ccc(OC[C@@H]5CO[C@@](Cn6cncn6)(c6ccc(F)cc6F)C5)cc4)CC3)cc2)c1=O.[Na+] (some centres unmarked) : 0.95%

Measured Total impurity increment in 30 days of CC[C@@H]([C@H](C)O)n1ncn(-c2ccc(N3CCN(c4ccc(OC[C@@H]5CO[C@@](Cn6c[n+](C(C)OC(=O)N(C)c7ncccc7COC(=O)[C@@H](N)CCC(N)=O)cn6)(c6ccc(F)cc6F)C5)cc4)CC3)cc2)c1=O (some centres unmarked) : 0.36%

Measured Total impurity increment in 30 days of CC[C@@H](C(C)OC(=O)OC(C)OC(=O)CNS(=O)(=O)[O-])n1ncn(-c2ccc(N3CCN(c4ccc(OC[C@@H]5CO[C@@](Cn6cncn6)(c6ccc(F)cc6F)C5)cc4)CC3)cc2)c1=O.[Na+] (some centres unmarked) : 1.96%

Measured Total impurity increment in 30 days of CC[C@@H]([C@H](C)O)n1ncn(-c2ccc(N3CCN(c4ccc(OC[C@@H]5CO[C@@](Cn6c[n+](C(C)OC(=O)N(C)c7ncccc7COC(=O)[C@@H](N)CCCCN)cn6)(c6ccc(F)cc6F)C5)cc4)CC3)cc2)c1=O (some centres unmarked) : 0.27%

Measured Total impurity increment in 30 days of CC[C@@H]([C@H](C)O)n1ncn(-c2ccc(N3CCN(c4ccc(OC[C@@H]5CO[C@@](Cn6c[n+](C(C)OC(=O)N(C)c7ncccc7COC(=O)[C@@H](N)CCCN)cn6)(c6ccc(F)cc6F)C5)cc4)CC3)cc2)c1=O (some centres unmarked) : 0.68%

---

Assay: Solid stability test (stability chamber, HPLC total impurity)
Format: physicochemical
Settings: solid, packaged, 25° C.±2° C., relative humidity 60%±2%
We label by threshold. Values of Total impurity increment in 30 days strictly beneath 1% are 1. Values of 1% and up are 0.

Request: Lab log: compare recorded Total impurity increment in 30 days with 1%; is it strictly lower for CC[C@@H]([C@H](C)O)n1ncn(-c2ccc(N3CCN(c4ccc(OC[C@@H]5CO[C@@](Cn6c[n+](C(C)OC(=O)SCC(=O)[O-])cn6)(c6ccc(F)cc6F)C5)cc4)CC3)cc2)c1=O.[Cl-].[Na+] (some centres unmarked) [ST0034] ?
Result: 0

Request: Lab log: compare recorded Total impurity increment in 30 days with 1%; is it strictly lower for CC[C@@H]([C@H](C)O)n1ncn(-c2ccc(N3CCN(c4ccc(OC[C@@H]5CO[C@@](Cn6c[n+](C(C)OC(=O)OCCS)cn6)(c6ccc(F)cc6F)C5)cc4)CC3)cc2)c1=O (some centres unmarked) [ST0036] ?
Result: 1

Request: Lab log: compare recorded Total impurity increment in 30 days with 1%; is it strictly lower for CC[C@@H]([C@H](C)O)n1ncn(-c2ccc(N3CCN(c4ccc(OC[C@@H]5CO[C@@](Cn6c[n+](C(C)OC(=O)OCCOP(=O)(O)O)cn6)(c6ccc(F)cc6F)C5)cc4)CC3)cc2)c1=O (some centres unmarked) [ST0042] ?
Result: 0

Request: Lab log: compare recorded Total impurity increment in 30 days with 1%; is it strictly lower for CC[C@@H]([C@H](C)O)n1ncn(-c2ccc(N3CCN(c4ccc(OC[C@@H]5CO[C@@](Cn6c[n+](CC(=O)[O-])cn6)(c6ccc(F)cc6F)C5)cc4)CC3)cc2)c1=O.[Cl-].[Na+] [ST0021] ?
Result: 1

Request: Lab log: compare recorded Total impurity increment in 30 days with 1%; is it strictly lower for CC[C@@H](C(C)OC(=O)OC(C)OC(=O)CN(C)C)n1ncn(-c2ccc(N3CCN(c4ccc(OC[C@@H]5CO[C@@](Cn6cncn6)(c6ccc(F)cc6F)C5)cc4)CC3)cc2)c1=O (some centres unmarked) [Compound 0058] ?
Result: 1

---

Assay: In vitro metabolic stability in human plasma
Type: in vitro ADME
Details: human, plasma, 37° C., 10 μM compound, read-out: Human plasma T1/2
attribute_measured: half-life at 10 µM
A complete answer gives the number and then names the unit.

Measured half-life at 10 µM of CC[C@@H](C(C)OC(=O)OC(C)OC(=O)CCCCCCCCCOP(=O)([O-])[O-])n1ncn(-c2ccc(N3CCN(c4ccc(OC[C@@H]5CO[C@@](Cn6cncn6)(c6ccc(F)cc6F)C5)cc4)CC3)cc2)c1=O.[Na+].[Na+] (stereo partly shown) : 18.3 min

Measured half-life at 10 µM of CC[C@@H]([C@H](C)O)n1ncn(-c2ccc(N3CCN(c4ccc(OC[C@@H]5CO[C@@](Cn6c[n+](C(C)OC(=O)N(C)c7ncccc7COC(=O)CN)cn6)(c6ccc(F)cc6F)C5)cc4)CC3)cc2)c1=O (stereo partly shown) : 0.78 min

Measured half-life at 10 µM of CC[C@@H]([C@H](C)O)n1ncn(-c2ccc(N3CCN(c4ccc(OC[C@@H]5CO[C@@](Cn6c[n+](C(C)OC(=O)OCC[C@@H](N)C(=O)O)cn6)(c6ccc(F)cc6F)C5)cc4)CC3)cc2)c1=O.Cl.[Cl-] (stereo partly shown) : 18.6 min

Measured half-life at 10 µM of CC[C@@H]([C@H](C)OC(=O)OCOC(=O)CCCCCOP(=O)([O-])[O-])n1ncn(-c2ccc(N3CCN(c4ccc(OC[C@@H]5CO[C@@](Cn6cncn6)(c6ccc(F)cc6F)C5)cc4)CC3)cc2)c1=O.[Na+].[Na+] : 0.92 min

---

Exercise: state measured half-life at 10 µM for each of the compounds provided.
Assay: In vitro metabolic stability in human intestine S9
Format: in vitro ADME
Settings: human; 37° C., 10 μM compound, 1 mg/mL S9, NADPH regeneration system; read-out: Human intestine S9 T1/2
Enter your answer as a number in min; do not include the unit.

Measured half-life at 10 µM of CC[C@@H](C(C)OC(=O)OC(C)OC(=O)CCCCCOS(=O)(=O)[O-])n1ncn(-c2ccc(N3CCN(c4ccc(OC[C@@H]5CO[C@@](Cn6cncn6)(c6ccc(F)cc6F)C5)cc4)CC3)cc2)c1=O.[Na+] (stereo partly shown) : 28.7

Measured half-life at 10 µM of CC[C@@H]([C@H](C)OC(=O)OC(C)OC(=O)Cc1ccc(OS(=O)(=O)[O-])cc1)n1ncn(-c2ccc(N3CCN(c4ccc(OC[C@@H]5CO[C@@](Cn6cncn6)(c6ccc(F)cc6F)C5)cc4)CC3)cc2)c1=O.[Na+] (stereo partly shown) : 40.3

Measured half-life at 10 µM of CC[C@@H](C(C)OC(=O)OC(C)OC(=O)CCCCOS(=O)(=O)[O-])n1ncn(-c2ccc(N3CCN(c4ccc(OC[C@@H]5CO[C@@](Cn6cncn6)(c6ccc(F)cc6F)C5)cc4)CC3)cc2)c1=O.[Na+] (stereo partly shown) : 24.2

Measured half-life at 10 µM of CC[C@@H](C(C)OC(=O)OCOC(=O)CCCCCCOP(=O)([O-])[O-])n1ncn(-c2ccc(N3CCN(c4ccc(OC[C@@H]5CO[C@@](Cn6cncn6)(c6ccc(F)cc6F)C5)cc4)CC3)cc2)c1=O.[Na+].[Na+] (stereo partly shown) : 20

---

Test: In vitro metabolic stability in human plasma
Format: in vitro ADME
Conditions: human, plasma, 37° C., 10 μM compound, read-out: Human plasma T1/2
attribute_measured: half-life at 10 µM (min)
Enter your answer as a number in min; do not include the unit.

Measured half-life at 10 µM of CC[C@@H]([C@H](C)OC(=O)OC(C)OC(=O)CCCCCOP(=O)([O-])[O-])n1ncn(-c2ccc(N3CCN(c4ccc(OC[C@@H]5CO[C@@](Cn6cncn6)(c6ccc(F)cc6F)C5)cc4)CC3)cc2)c1=O.[Na+].[Na+] (stereo partly shown) : 0.85

Measured half-life at 10 µM of CC[C@@H]([C@H](C)O)n1ncn(-c2ccc(N3CCN(c4ccc(OC[C@@H]5CO[C@@](Cn6c[n+](C(C)OC(=O)N(C)c7ncccc7COC(=O)[C@@H](N)CCCCN)cn6)(c6ccc(F)cc6F)C5)cc4)CC3)cc2)c1=O (stereo partly shown) : 1.57

Measured half-life at 10 µM of CC[C@@H]([C@H](C)O)n1ncn(-c2ccc(N3CCN(c4ccc(OC[C@@H]5CO[C@@](Cn6c[n+](C(C)OC(=O)N(C)c7ncccc7COC(=O)[C@@H](N)CCC(N)=O)cn6)(c6ccc(F)cc6F)C5)cc4)CC3)cc2)c1=O (stereo partly shown) : 1.39

Measured half-life at 10 µM of CC[C@@H]([C@H](C)OC(=O)OC(C)OC(=O)CNC)n1ncn(-c2ccc(N3CCN(c4ccc(OC[C@@H]5CO[C@@](Cn6cncn6)(c6ccc(F)cc6F)C5)cc4)CC3)cc2)c1=O.Cl (stereo partly shown) : 19.9
